# TEST TARGET: purified recombinant human FGFR2 protein (Homo sapiens (Human))
# Sequence (P21802 22-821): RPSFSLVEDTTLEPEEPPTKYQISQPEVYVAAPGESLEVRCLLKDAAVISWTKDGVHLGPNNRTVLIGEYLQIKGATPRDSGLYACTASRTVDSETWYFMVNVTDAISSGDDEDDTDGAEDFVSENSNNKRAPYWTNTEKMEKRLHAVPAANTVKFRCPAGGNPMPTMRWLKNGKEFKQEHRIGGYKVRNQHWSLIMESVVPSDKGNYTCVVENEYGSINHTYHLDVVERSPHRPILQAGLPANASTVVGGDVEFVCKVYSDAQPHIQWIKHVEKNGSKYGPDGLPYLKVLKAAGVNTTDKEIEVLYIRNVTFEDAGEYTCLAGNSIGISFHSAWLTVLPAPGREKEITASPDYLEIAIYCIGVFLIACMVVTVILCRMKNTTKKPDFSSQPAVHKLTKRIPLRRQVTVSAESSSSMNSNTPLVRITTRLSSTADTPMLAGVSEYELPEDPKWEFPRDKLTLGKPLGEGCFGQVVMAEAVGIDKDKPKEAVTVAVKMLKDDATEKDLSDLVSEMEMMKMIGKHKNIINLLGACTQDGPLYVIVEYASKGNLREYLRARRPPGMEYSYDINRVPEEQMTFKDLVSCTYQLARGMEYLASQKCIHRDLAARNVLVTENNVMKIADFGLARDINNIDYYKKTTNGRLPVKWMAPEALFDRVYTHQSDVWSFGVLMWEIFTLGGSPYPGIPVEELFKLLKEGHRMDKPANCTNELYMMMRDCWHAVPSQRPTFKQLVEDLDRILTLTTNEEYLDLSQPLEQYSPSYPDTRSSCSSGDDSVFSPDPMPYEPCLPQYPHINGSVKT
# PROCEDURE DETAILS: Measurement of inhibitory effect on FGFR2 kinase activity
# Type: biochemical
# CONDITION NOTES: FGFR2 kinase, FL-Peptide 22 substrate, ATP 75 μM, 25° C. for 120 minutes
pIC50: −log10 of the molar value.
MEASURED ATTRIBUTE: pIC50

State the recorded pIC50 for this entry: CC(C)c1cc(C#Cc2nn([C@H]3CCN(C(=O)/C=C/CN(C)C)C3)c3ncnc(N)c23)cc(C(C)C)c1
< 5.00

====

# TEST TARGET: purified recombinant human FGFR2 protein (Homo sapiens (Human))
# PROCEDURE DETAILS: Measurement of inhibitory effect on FGFR2 kinase activity
# Type: biochemical
MEASURED ATTRIBUTE: IC50

State the recorded IC50 for this entry: C=CC(=O)N1C[C@@H](n2cc(C#Cc3cc(OC)cc(OC)c3)c3c(N)ncnc32)C[C@H]1C(=O)OC
< 0.3 nM
